biological target: Prothrombin (Homo sapiens, UniProt P00734)
ASSAY_METRIC: Ki (nM)
Answers are plain numbers, in nM.

Q: Request - read-out Ki | tested on Prothrombin (Homo sapiens, UniProt P00734) | compound N=C(N)N1CCC[C@H](C(=O)NC[C@@H]2CCCN2C(=O)[C@H](CO)NS(=O)(=O)c2ccc3ccccc3c2)C1
Ans: 3.44

----------
molecular target: Prothrombin (Homo sapiens, UniProt P00734); assay: In vitro inhibition of thrombin catalytic activity using s-2238 substrate at 10 uM was measured at […] after 3 min incubation with compound; assay type: functional
ASSAY_METRIC: IC50 (nM)
Numbers only, in nM.

Q: Data request, read-out IC50, for CC(O)C(NS(=O)(=O)c1ccc2ccccc2c1)C(=O)N1CCC[C@H]1CNC(=O)[C@H]1CCCN(C(=N)N)C1 (single isomer, unassigned)
Ans: 500

All figures here come from ChEMBL document CHEMBL1135091.
